Assay: S. cerevisiae growth inhibition in permissive medium (OD615), pilot counter-assay for S. cerevisiae lifespan shortening project, permissive growth control (AID 705)
Conditions: OD615, 24 h, at 10 µM, stronger effect = higher value
Activity calls are given as the source filed them.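 How the source made its calls: active means growth inhibition above 25% in both replicates, a cutoff set 3 SD above the mean; inconclusive means above 25% in only one replicate; inactive means the rest.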
Kindly supply the reported growth inhibition values for the records listed here.

As a guide, the following entries are already answered.
Cc1cc(N2CCCC2)n2nc(C)nc2n1 = -10.1% (inactive)
O=C(CCC(=O)OCC(=O)c1ccccc1)NC1CCCCC1 = -6.58% (inactive)
COc1ccccc1NC(=O)C1=C(C)Nc2nnnn2C1c1cccc(C)c1 (configuration not stated) = -13.2% (inactive)
COc1ccc(S(=O)(=O)Cc2ccc(C(=O)NCCc3ccc(S(N)(=O)=O)cc3)o2)cc1 = -0.09% (inactive)
CCn1c(SCC(=O)Nc2ccc(Cl)cc2)nnc1C1CC1 = 5.96% (inactive)
CC(C)Sc1nc2c(c(=O)n1-c1ccc(F)cc1)SCC2 = -4.45% (inactive)
COc1ccc(OC)c(C2CC(=O)NC(SC)=C2C#N)c1 (configuration not stated) = -11.4% (inactive)
CS(=O)(=O)c1ccc(N)cc1 = -13.1% (inactive)

Need growth inhibition for each of these compounds.
1. COc1ccc(-c2[nH]c(-c3ccc(F)cc3)nc2SCC(=O)NCc2ccco2)cc1OC
2. NC(=O)c1sc2nc(N3CCCCC3)c3c(c2c1N)CCCC3
3. O=C(O)COc1ccc(S(=O)(=O)NCCc2ccccc2)cc1
4. Cc1nnc(NC(=O)CSc2nnc(Cc3cccn3C)n2-c2cccc(C)c2C)s1
5. CCOC(=O)N1CCC(N2CC34C=CC(O3)C(C(=O)Nc3ccc(F)cc3)C4C2=O)CC1 (configuration not stated)
6. O=C(NCC(c1ccc(F)cc1)N1CCOCC1)c1ccc(Br)o1 (configuration not stated)
7. CCOc1ccc(C2Oc3nc(SC)nnc3-c3ccccc3N2C(C)=O)cc1OC (configuration not stated)
8. COC(=O)c1cn(NC(=O)c2cccnc2)c(=O)c2ccccc12

**Result**
-4.83% (inactive)
8.56% (inactive)
-6.59% (inactive)
6.78% (inactive)
-4.45% (inactive)
-9.34% (inactive)
6.18% (inactive)
-2.23% (inactive)

For every item below, please supply its growth inhibition.
1. CC(=O)NC(CCS(C)(=O)=O)C(=O)Nc1cccc(C)c1C (configuration not stated)
2. COc1cccc(C2=NOC(C(=O)N3CCc4ccccc4C3)C2)c1 (configuration not stated)
3. CCCCn1c(CNC(C)=O)nc2ccccc21
4. O=C(NCCN1CCOCC1)c1ccc2c(c1)N(Cc1ccccc1)CCS2
5. Cc1ccccc1-n1c(Cn2c(=O)sc3ccccc32)nnc1SCC(=O)N1CCCC1
6. Cc1cc(/C=N/n2cnnc2)c(C)n1-c1cccc(Cl)c1

**Result**
1: -7.1% (inactive); 2: -9.41% (inactive); 3: -2.36% (inactive); 4: -1.33% (inactive); 5: -2.21% (inactive); 6: -2% (inactive)

====

Experiment: MRP1 drug-resistance reversers in H69AR cells – cell-based, doxorubicin co-treatment, pilot screen (AID 601)
Conditions: H69AR cells, CellTiter-Glo, 72 h; compound alone cytotoxicity; at 10 µM
experimental-readout: viability (%)
One number for each entry, in %.

Please review the entries below; each comes with its answer.
COc1cc2c(cc1OC)CN(C(=O)CSc1nc3[nH]ncc3c(=O)n1-c1ccccc1)CC2 = 91.7
CC(=O)NCC(=O)N(Cc1ccco1)C1(C(=O)NC2CCCCC2)CCCCC1 = 90.9
COc1ccc(NC(=O)C2CCCN2S(=O)(=O)c2cccc3cccnc23)c(OC)c1 (stereo unspecified) = 95
Cc1cc(N=Cc2cc(Br)ccc2O)no1 = 73.1

Go through the items and report each one's viability.
1. O=C(Nc1nc(-c2ccncc2)cs1)C1COc2ccccc2O1 (stereo unspecified)
2. CC1CCN(C(=O)CSCC(=O)Nc2nc(-c3cccs3)cs2)CC1
3. O=C(O)c1ccccc1S(=O)(=O)NCC(O)COc1ccc(Br)cc1 (stereo unspecified)
4. O=C(COC(=O)C1(c2ccccc2F)CCCC1)NC1CCS(=O)(=O)C1 (stereo unspecified)
5. O=C1CCCC2=C1C(c1cccc(Br)c1)n1nc(-c3ccco3)nc1N2 (stereo unspecified)

**Result**
64.8
91.1
99.9
97.2
103

# map each molecule to its viability
1. O=C(Nc1cccc2ccccc12)c1ccc(Br)o1
2. CCC(C)(NC(=O)CNC(C)=O)C(=O)NC1CCCCC1 (stereo unspecified)

**Result**
[84, 94]

====

Experiment: reduced viability of SK-BR-3 breast cancer cells – cell-based, 24 h, human, pilot screen (AID 572);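 further: compound exposure lasted between 18 and 24 h rather than exactly 24 h; 100% = carrier-treated control wells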
Conditions: SK-BR-3 viability, CellTiter-Glo luminescence, at 10 µM, stronger effect = lower value
experimental-readout: viability (%)
Answers are plain numbers, in %.

Below are 6 compounds. Give each one its viability.
1. CCN1CCN(C(=O)c2oc(=O)c3ccccc3c2-c2ccc(C)cc2)CC1
2. COc1ccc(OC)c(C2CC(=O)NC(SC)=C2C#N)c1 (stereo not drawn)
3. O=C(Cn1c(=O)sc2ccccc21)NCCOc1ccccc1F
4. CCOC(=O)N1CCN(C(=O)c2ccc3nc4ccsc4c(=O)n3c2)CC1
5. COc1ccc(S(=O)(=O)NCC(c2cccnc2)N2CCN(C)CC2)cc1C (stereo not drawn)
6. CC(C)c1nnc(NC(=O)c2ccc(N3C(=O)CCC3=O)cc2)s1

**Result**
96
102
102
97.5
97
91.5

Lab note: each compound below needs its viability filled in.
1. CCOc1ccccc1N1Cc2cc(C)c(C)cc2C1
2. Cc1ccnc(NC(=O)C2CCC(CNc3c(N4CCCC4)c(=O)c3=O)CC2)c1 (stereo not drawn)
3. Cc1ccc(C)n1-c1ccc(N2CCOCC2)cc1

**Result**
1. 92.5
2. 93
3. 104

For every record below, what is its viability?
1. CC(C)(O)C#Cc1ccc(C(=O)N2CCN(C(=O)c3ccco3)CC2)cc1
2. CCOC(=O)c1nc2sc3c(c2c(=O)[nH]1)CCCC3
3. O=C(CC1Oc2ccccc2NC1=O)NCCCN1CCOCC1 (stereo not drawn)
4. COc1cc(C(=O)Nc2cccc(-c3nncn3C)c2)cc(OC)c1OC

**Result**
1: 102; 2: 80.5; 3: 106; 4: 102

====

Assay: RAM signaling pathway blockade in yeast – S. cerevisiae, Pdr1DBD-CYC8 efflux-inhibited sensitized strain, primary screen (AID 1298);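 further: 0% = DMSO untreated cells without growth and 100% = 10 µM 1-NA-PP1 full growth; higher means more yeast growth rescued from 5-FOA killing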
Details: S. cerevisiae cbk1-as DSE1-URA3 strain, 5-FOA growth OD615, 2 d; at 50 µM; stronger effect = higher value
Calls of active or inactive are those of the source.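 The calls were made as follows: active = RAM network inhibition above 8.4% in each of two replicates, 3 SD over the compound average; inconclusive = above 8.4% inhibition in only one replicate; inactive = 8.4% inhibition or less in each replicate.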
experimental-readout: RAM network inhibition

CCOC(=O)Nc1c(O)ccc2oc(C)c(-c3ccccc3)c12 = 3.9% (inactive)

Below are 4 compounds. Give each one its RAM network inhibition.
1. CN1CCN(c2cc(=O)n(-c3ccc(Cl)cc3)c(=O)[nH]2)CC1
2. C=C(C)Cn1c(C(C)NC(=O)CCC)nc2ccccc21 (configuration not stated)
3. Cn1c(=O)c2c(nc(CN3CCc4ccccc4C3)n2Cc2cccc(Cl)c2)n(C)c1=O
4. CCOc1ccc(C2CC(c3cccc(C)c3)n3nc(N)nc3N2)cc1 (configuration not stated)

**Result**
["2.42% (inactive)", "0.47% (inactive)", "4.55% (inactive)", "2.03% (inactive)"]

# batch: return RAM network inhibition for each of the 2 compounds below
1. CCCc1cc(C(=O)Nc2cc(OC)c(Cl)cc2OC)no1
2. CCS(=O)(=O)c1nc2ccccc2n1Cc1ccccc1Cl

**Result**
1. 7.36% (inactive)
2. 5.91% (inactive)

====

Assay: RAM pathway blockade in budding yeast – dse1pr::URA3 reporter, 5-FOA selection, pilot screen (AID 869);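 further: 0% = DMSO wells with no growth and 100% = 10 µM 1-NA-PP1 with full growth; RAM network block rescues cells from 5-FOA so hits raise OD615 growth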
Settings: S. cerevisiae dse1pr::URA3 5-FOA growth, OD615, 2 d; at 10 µM; stronger effect = higher value; strain carries analog-sensitive mutant Cbk1 kinase
Calls of active or inactive are those of the source.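 Rule for the calls: active = inhibition over a set limit, the all-compound mean plus 3 SD, in both replicate runs; inconclusive = over that limit in just one replicate run; inactive = at or under that limit in both runs.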
Answer each item with its documented inhibition.

I need inhibition for every entry listed below, if you could help.
1. CCOC(=O)C1C(C)N=C2SCC(=O)N2C1c1cccc(Br)c1 (stereo not given)
2. CCOCCCNC(=O)C(NC(=O)c1ccccn1)c1ccc(C)cc1 (stereo not given)
3. C=CCn1c(=O)c2c(nc3n2CC(C)CN3c2cccc(OC)c2)n(C)c1=O (stereo not given)
4. CCC(C)C1C(C#N)=C(N)OC2=C1C(=O)CC(C)(C)C2 (stereo not given)
5. COc1ccccc1N1CCN(C(=O)c2cc(C3CC3)on2)CC1
6. CCn1cc(C(=O)N2CCCC2)c(=O)c2cc(S(=O)(=O)N(C)C)ccc21
7. CCOC(=O)c1ccc(N2Cc3cc(C)c(C)cc3C2)cc1O

**Result**
["0.36% (inactive)", "0.07% (inactive)", "1.56% (inactive)", "1.31% (inactive)", "0.905% (inactive)", "0.825% (inactive)", "0.285% (inactive)"]

Data provenance is PubChem BioAssay.
